Data provenance: patent US20090004675A1

Biological target: Escherichia coli β clamp (beta subunit of DNA polymerase III holoenzyme), P0A988
Sequence (P0A988 whole entry): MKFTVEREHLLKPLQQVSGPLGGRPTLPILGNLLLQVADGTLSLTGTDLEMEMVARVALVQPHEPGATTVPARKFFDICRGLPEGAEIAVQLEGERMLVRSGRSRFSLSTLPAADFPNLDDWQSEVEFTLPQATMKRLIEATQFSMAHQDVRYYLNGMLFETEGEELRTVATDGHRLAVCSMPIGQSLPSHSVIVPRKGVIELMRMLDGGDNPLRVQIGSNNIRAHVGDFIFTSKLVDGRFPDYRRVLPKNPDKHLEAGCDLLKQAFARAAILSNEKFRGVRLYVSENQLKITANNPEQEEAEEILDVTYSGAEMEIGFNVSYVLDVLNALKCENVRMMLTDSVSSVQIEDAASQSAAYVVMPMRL
Assay: fluorescence (fluorophore-labeled β titrated with peptide); ±0.4; labeled β
Conditions: chains peptide; modification not given
measurement kind: Kd (nM)
Hi! Could you send only the number? It should be in nM, unit omitted.

*Q* # query: Kd of entry RLLNDLRGLIGSEQVELEFD [20 mer peptide corresponding to the C-terminal 20 residues of E. coli Pol III α subunit]
*A* 2700
